measurement_notes: Liver homogenate stability
Format: in vitro ADME
test_settings: 1 μM, 37° C., 120 mins
Structures can show the parent of a compound that is named as a salt.
measurement_name: Percentage remaining Mouse Liver

- molecule: "COc1cc(OC)c(C(C)C)cc1C(=O)N1Cc2ccc(CN3CCN(C)CC3)cc2C1"
  measurement_name: "Percentage remaining Mouse Liver"
  value_reported: "93%"
- molecule: "COCOc1cc(OCOC)c(C(C)C)cc1C(=O)N1Cc2ccc(CN3CCN(C)CC3)cc2C1"
  measurement_name: "Percentage remaining Mouse Liver"
  value_reported: "82%"
- molecule: "CC(C)c1cc(C(=O)N2Cc3ccc(CN4CCN(C)CC4)cc3C2)c(OC(=O)N2CCCC2)cc1OC(=O)N1CCCC1"
  measurement_name: "Percentage remaining Mouse Liver"
  value_reported: "1%"
- molecule: "CC(C)c1cc(C(=O)N2Cc3ccc(CN4CCN(C)CC4)cc3C2)c(OC(=O)N2CCOCC2)cc1OC(=O)N1CCOCC1"
  measurement_name: "Percentage remaining Mouse Liver"
  value_reported: "0%"
- molecule: "CC(C)c1cc(C(=O)N2Cc3ccc(CN4CCN(C)CC4)cc3C2)c(OC(=O)N(C)C)cc1O"
  measurement_name: "Percentage remaining Mouse Liver"
  value_reported: "82%"
- molecule: "CC(C)c1cc(C(=O)N2Cc3ccc(CN4CCN(C)CC4)cc3C2)c(O)cc1OC(=O)N(C)C"
  measurement_name: "Percentage remaining Mouse Liver"
  value_reported: "0%"
- molecule: "CC(C)c1cc(C(=O)N2Cc3ccc(CN4CCN(C)CC4)cc3C2)c(O)cc1OC(=O)N1CCOCC1"
  measurement_name: "Percentage remaining Mouse Liver"
  value_reported: "0%"
- molecule: "COc1cc(O)c(C(=O)N2Cc3ccc(CN4CCN(C)CC4)cc3C2)cc1C(C)C"
  measurement_name: "Percentage remaining Mouse Liver"
  value_reported: "100%"
- molecule: "C=CCOc1cc(O)c(C(C)C)cc1C(=O)N1Cc2ccc(CN3CCN(C)CC3)cc2C1"
  measurement_name: "Percentage remaining Mouse Liver"
  value_reported: "63%"
- molecule: "C=CCOc1cc(O)c(C(=O)N2Cc3ccc(CN4CCN(C)CC4)cc3C2)cc1C(C)C"
  measurement_name: "Percentage remaining Mouse Liver"
  value_reported: "86%"

List the reported Percentage remaining Mouse Liver of each molecule below.
1. CC(C)c1cc(C(=O)N2Cc3ccc(CN4CCN(C)CC4)cc3C2)c(OC(=O)C(C)(C)C)cc1OC(=O)C(C)(C)C [Example 24, dihydrochloride]
2. CC(C)c1cc(C(=O)N2Cc3ccc(CN4CCN(C)CC4)cc3C2)c(OC(=O)N2CCCC2)cc1O
3. CCN(CC)C(=O)Oc1cc(O)c(C(C)C)cc1C(=O)N1Cc2ccc(CN3CCN(C)CC3)cc2C1
4. CC(C)c1cc(C(=O)N2Cc3ccc(CN4CCN(C)CC4)cc3C2)c(OC(=O)OC(C)(C)C)cc1OC(=O)OC(C)(C)C
5. C=CCOc1cc(OCC=C)c(C(C)C)cc1C(=O)N1Cc2ccc(CN3CCN(C)CC3)cc2C1

Data returned:
1. 0%
2. 80%
3. 89%
4. 0%
5. 75%
